- System: 323965-272-R-J2-PDC complex spheroid viability;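 also: spheroids exposed to agents for seven days before readout; percent of DMSO vehicle control wells so 100% = untreated growth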
- ASSAY COMMENT: Anticancer human tumor 323965-272-R-J2-PDC patient-derived pancreatic carcinoma cell line growth inhibition [CLK]
- CONDITION: second compound 0.1 µM; first compound 1 µM; active compounds read low
Please go through the items and note down their viability, T/C.
Numbers only, in %.

Below are worked cases with known answers.
compound="CC1(C)CCC(CN2CCN(c3ccc(C(=O)NS(=O)(=O)c4ccc(NCC5CCOCC5)c([N+](=O)[O-])c4)c(Oc4cnc5[nH]ccc5c4)c3)CC2)=C(c2ccc(Cl)cc2)C1 + CN1CCN(c2cc(C(=O)Nc3cc4cc(-c5cnn(C)c5)ccc4cn3)ccn2)CC1" quantitative_readout=68.5
compound="CC(=O)O[C@H]1C(=O)[C@@]2(C)[C@H]([C@H](OC(=O)c3ccccc3)[C@]3(O)C[C@H](OC(=O)[C@H](O)[C@@H](NC(=O)c4ccccc4)c4ccccc4)C(C)=C1C3(C)C)[C@]1(OC(C)=O)CO[C@@H]1C[C@@H]2O + CN1CCN(c2cc(C(=O)Nc3cc4cc(-c5cnn(C)c5)ccc4cn3)ccn2)CC1" quantitative_readout=25.9
compound="CC(Nc1ccc2c(c1)OCCn1cc(N3C(=O)OCC3C(F)F)nc1-2)C(N)=O (stereo not given) + CN1CCN(c2cc(C(=O)Nc3cc4cc(-c5cnn(C)c5)ccc4cn3)ccn2)CC1" quantitative_readout=45.1

For each of the items listed, what is its viability, T/C?
1. CC(Nc1ccc2c(c1)OCCn1cc(N3C(=O)OCC3C(F)F)nc1-2)C(N)=O (stereo not given) + CNC(=O)c1ccc(Nc2nc(OC3CCCC3)c3c(-c4ccc5nc(C)oc5c4)c[nH]c3n2)c(OC)c1
2. C=CC(=O)N1CCN(c2nc(=O)n(-c3c(C)ccnc3C(C)C)c3nc(-c4c(O)cccc4F)c(F)cc23)C(C)C1 (stereo not given) + CN1CCN(c2cc(C(=O)Nc3cc4cc(-c5cnn(C)c5)ccc4cn3)ccn2)CC1
3. CC(=O)O[C@H]1C(=O)[C@@]2(C)[C@H]([C@H](OC(=O)c3ccccc3)[C@]3(O)C[C@H](OC(=O)[C@H](O)[C@@H](NC(=O)c4ccccc4)c4ccccc4)C(C)=C1C3(C)C)[C@]1(OC(C)=O)CO[C@@H]1C[C@@H]2O + CNC(=O)c1ccc(Nc2nc(OC3CCCC3)c3c(-c4ccc5nc(C)oc5c4)c[nH]c3n2)c(OC)c1
4. C=CC(=O)N1CCN(c2nc(=O)n(-c3c(C)ccnc3C(C)C)c3nc(-c4c(O)cccc4F)c(F)cc23)C(C)C1 (stereo not given) + CNC(=O)c1ccc(Nc2nc(OC3CCCC3)c3c(-c4ccc5nc(C)oc5c4)c[nH]c3n2)c(OC)c1

[out]
71.6
57.4
37.9
55.4

For each of the items listed, what is its viability, T/C?
1. Nc1ccccc1NC(=O)c1ccc(CNC(=O)OCc2cccnc2)cc1 + CN1CCN(c2cc(C(=O)Nc3cc4cc(-c5cnn(C)c5)ccc4cn3)ccn2)CC1
2. CC1(C)CCC(CN2CCN(c3ccc(C(=O)NS(=O)(=O)c4ccc(NCC5CCOCC5)c([N+](=O)[O-])c4)c(Oc4cnc5[nH]ccc5c4)c3)CC2)=C(c2ccc(Cl)cc2)C1 + CNC(=O)c1ccc(Nc2nc(OC3CCCC3)c3c(-c4ccc5nc(C)oc5c4)c[nH]c3n2)c(OC)c1
3. O=c1[nH]cc(F)c(=O)[nH]1 + CNC(=O)c1ccc(Nc2nc(OC3CCCC3)c3c(-c4ccc5nc(C)oc5c4)c[nH]c3n2)c(OC)c1
4. CCN1CCN(Cc2ccc(Nc3ncc(F)c(-c4cc(F)c5nc(C)n(C(C)C)c5c4)n3)nc2)CC1 + CN1CCN(c2cc(C(=O)Nc3cc4cc(-c5cnn(C)c5)ccc4cn3)ccn2)CC1
5. CC1COCCN1c1cc(C2(S(C)(=N)=O)CC2)nc(-c2ccnc3[nH]ccc23)n1 (stereo not given) + CN1CCN(c2cc(C(=O)Nc3cc4cc(-c5cnn(C)c5)ccc4cn3)ccn2)CC1
6. O=C(c1cc(Cc2n[nH]c(=O)c3ccccc23)ccc1F)N1CCN(C(=O)C2CC2)CC1 + CN1CCN(c2cc(C(=O)Nc3cc4cc(-c5cnn(C)c5)ccc4cn3)ccn2)CC1
7. COc1ccc([C@@H](O)c2cc(-c3ncnc4cc(N5CCOCC5)ccc34)c(F)cc2Cl)nn1 + CN1CCN(c2cc(C(=O)Nc3cc4cc(-c5cnn(C)c5)ccc4cn3)ccn2)CC1
8. COc1cccc2c1C(=O)c1c(O)c3c(c(O)c1C2=O)CC(O)(C(=O)CO)CC3OC1CC(N)C(O)C(C)O1 (stereo not given) + CN1CCN(c2cc(C(=O)Nc3cc4cc(-c5cnn(C)c5)ccc4cn3)ccn2)CC1

[out]
1. 78.7
2. 80.2
3. 65.6
4. 58.9
5. 41.8
6. 64.8
7. 61.8
8. 28.2

For each of the items listed, what is its viability, T/C?
1. CC1COCCN1c1cc(C2(S(C)(=N)=O)CC2)nc(-c2ccnc3[nH]ccc23)n1 (stereo not given) + CNC(=O)c1ccc(Nc2nc(OC3CCCC3)c3c(-c4ccc5nc(C)oc5c4)c[nH]c3n2)c(OC)c1
2. CCc1c2c(nc3ccc(O)cc13)-c1cc3c(c(=O)n1C2)COC(=O)[C@]3(O)CC + CNC(=O)c1ccc(Nc2nc(OC3CCCC3)c3c(-c4ccc5nc(C)oc5c4)c[nH]c3n2)c(OC)c1

[out]
1: 64.2; 2: 24

Reference source for all entries: PubChem BioAssay AID2060619
